- test_summary: Oral bioavailability in C57BL/6 mouse at 9.15 umol/kg administered via gavage by LC-MS/MS analysis
- Assay type: ADME, organism-based
- applied_conditions: in vivo
metric_name: bioavailability (%)

CNC(=O)COc1cc(C)c(Cc2ccc(O)c(C(C)C)c2)c(C)c1 ... 19.5

###

- test_summary: Drug uptake in C57BL/6 mouse serum at 3.05 umol/kg, ip after 1 hr by LC-MS/MS analysis
- Type: ADME, organism-based
- applied_conditions: read-out: Drug uptake
metric_name: concentration at 1 h (ng/g)

Cc1cc(OCC(=O)O)cc(C)c1Cc1ccc(O)c(C(C)C)c1 [SOBETIROME] ... 319

###

- target_desc: UniProt O00519
- test_summary: Prodrug activation in COS7 cells overexpressing human FAAH assessed as FAAH-mediated sobetirome formation by measuring compound hydrolysis rate at 100 uM by LC-MS/MS analysis
- Type: cell-based
I would appreciate it if you labelled entries yes (1) when Drug metabolism is 3 nmol/mg/min or higher, otherwise no (0).

Cc1cc(OCC(=O)NCCNS(C)(=O)=O)cc(C)c1Cc1ccc(O)c(C(C)C)c1 ... no (0)
Cc1cc(OCC(N)=O)cc(C)c1Cc1ccc(O)c(C(C)C)c1 ... yes (1)
Cc1cc(OCC(=O)NC(CO)CO)cc(C)c1Cc1ccc(O)c(C(C)C)c1 ... yes (1)
Cc1cc(OCC(=O)NC2COC2)cc(C)c1Cc1ccc(O)c(C(C)C)c1 ... yes (1)
C#CCNC(=O)COc1cc(C)c(Cc2ccc(O)c(C(C)C)c2)c(C)c1 ... yes (1)
CNC(=O)COc1cc(C)c(Cc2ccc(O)c(C(C)C)c2)c(C)c1 ... yes (1)
Cc1cc(OCC(=O)NCCc2ccccc2)cc(C)c1Cc1ccc(O)c(C(C)C)c1 ... no (0)
Cc1cc(OCC(=O)NCCF)cc(C)c1Cc1ccc(O)c(C(C)C)c1 ... yes (1)

###

- test_summary: Prodrug activation in C57BL/6 mouse brain assessed as FAAH-mediated sobetirome formation at 3.05 umol/kg, ip after 1 hr by LC-MS/MS analysis
- Assay type: organism-based
- applied_conditions: in vivo
metric_name: Drug uptake (ng/g)

Cc1cc(OCC(=O)NO)cc(C)c1Cc1ccc(O)c(C(C)C)c1 ... 2.8
Cc1cc(OCC(=O)NCc2ccccc2)cc(C)c1Cc1ccc(O)c(C(C)C)c1 ... 15.7
Cc1cc(OCC(=O)NCCS(=O)(=O)[O-])cc(C)c1Cc1ccc(O)c(C(C)C)c1.[Na+] ... 7.1

###

- test_summary: Brain to serum permeability coefficient, Kp of the compound in C57BL/6 mouse assessed as sobetirome level at 3.05 umol/kg, ip after 1 hr by LC-MS/MS analysis
- Format: ADME, organism-based
Lab note - cut at 0.8 for Kp: true (1) if strictly below, false (0) if not.

Cc1cc(OCC(=O)NCCO)cc(C)c1Cc1ccc(O)c(C(C)C)c1 ... true (1)
Cc1cc(OCC(=O)NCCS(=O)(=O)[O-])cc(C)c1Cc1ccc(O)c(C(C)C)c1.[Na+] ... true (1)
Cc1cc(OCC(=O)NCC#N)cc(C)c1Cc1ccc(O)c(C(C)C)c1 ... true (1)
Cc1cc(OCC(=O)Nc2ccccc2O)cc(C)c1Cc1ccc(O)c(C(C)C)c1 ... true (1)
Cc1cc(OCC(=O)NCCF)cc(C)c1Cc1ccc(O)c(C(C)C)c1 ... false (0)
Cc1cc(OCC(=O)NCC(F)(F)F)cc(C)c1Cc1ccc(O)c(C(C)C)c1 ... true (1)
Cc1cc(OCC(=O)NC2COC2)cc(C)c1Cc1ccc(O)c(C(C)C)c1 ... true (1)
CNC(=O)COc1cc(C)c(Cc2ccc(O)c(C(C)C)c2)c(C)c1 ... false (0)

###

- test_summary: Prodrug activation in C57BL/6 mouse serum assessed as FAAH-mediated sobetirome formation at 3.05 umol/kg, ip after 1 hr by LC-MS/MS analysis
- Format: organism-based
- applied_conditions: in vivo
I would appreciate it if you labelled entries yes (1) when Drug uptake is 50 ng/g or higher, otherwise no (0).

Cc1cc(OCC(N)=O)cc(C)c1Cc1ccc(O)c(C(C)C)c1 ... yes (1)
Cc1cc(OCC(=O)NCCO)cc(C)c1Cc1ccc(O)c(C(C)C)c1 ... yes (1)
Cc1cc(OCC(=O)NCCS(=O)(=O)[O-])cc(C)c1Cc1ccc(O)c(C(C)C)c1.[Na+] ... no (0)
Cc1cc(OCC(=O)NC2COC2)cc(C)c1Cc1ccc(O)c(C(C)C)c1 ... yes (1)
Cc1cc(OCC(=O)NN)cc(C)c1Cc1ccc(O)c(C(C)C)c1 ... yes (1)
CNC(=O)COc1cc(C)c(Cc2ccc(O)c(C(C)C)c2)c(C)c1 ... no (0)
C#CCNC(=O)COc1cc(C)c(Cc2ccc(O)c(C(C)C)c2)c(C)c1 ... yes (1)
Cc1cc(OCC(=O)N(C)C)cc(C)c1Cc1ccc(O)c(C(C)C)c1 ... no (0)
CCCNC(=O)COc1cc(C)c(Cc2ccc(O)c(C(C)C)c2)c(C)c1 ... no (0)
Cc1cc(OCC(=O)NCc2ccccc2)cc(C)c1Cc1ccc(O)c(C(C)C)c1 ... no (0)

###

Entries and their Kp
- test_summary: Brain to serum permeability coefficient, Kp of the compound in C57BL/6 mouse assessed as sobetirome level at 3.05 umol/kg, ip after 1 hr by LC-MS/MS analysis
- Format: ADME, organism-based
metric_name: Kp

Cc1cc(OCC(=O)NC(CO)CO)cc(C)c1Cc1ccc(O)c(C(C)C)c1 ... 0.03
Cc1cc(OCC(=O)NCCc2ccc(O)c(O)c2)cc(C)c1Cc1ccc(O)c(C(C)C)c1 ... 0.94
Cc1cc(OCC(=O)NCc2ccccc2)cc(C)c1Cc1ccc(O)c(C(C)C)c1 ... 0.95
C=CCNC(=O)COc1cc(C)c(Cc2ccc(O)c(C(C)C)c2)c(C)c1 ... 1.23
CONC(=O)COc1cc(C)c(Cc2ccc(O)c(C(C)C)c2)c(C)c1 ... 0.04
Cc1cc(OCC(=O)Nc2cccc(F)c2)cc(C)c1Cc1ccc(O)c(C(C)C)c1 ... 0.04
Cc1cc(OCC(=O)NC(C)CO)cc(C)c1Cc1ccc(O)c(C(C)C)c1 (centres undefined) ... 0.69
Cc1cc(OCC(=O)NC2CC2)cc(C)c1Cc1ccc(O)c(C(C)C)c1 ... 2.49
Cc1cc(OCC(=O)NCCN)cc(C)c1Cc1ccc(O)c(C(C)C)c1 ... 0.07
Cc1cc(OCC(=O)NCCc2ccccc2)cc(C)c1Cc1ccc(O)c(C(C)C)c1 ... 1.31
Cc1cc(OCC(=O)NCC(C)O)cc(C)c1Cc1ccc(O)c(C(C)C)c1 (centres undefined) ... 0.72
CCNC(=O)COc1cc(C)c(Cc2ccc(O)c(C(C)C)c2)c(C)c1 ... 2.74
Cc1cc(OCC(=O)NCC(F)F)cc(C)c1Cc1ccc(O)c(C(C)C)c1 ... 1.04
C#CCNC(=O)COc1cc(C)c(Cc2ccc(O)c(C(C)C)c2)c(C)c1 ... 0.99

###

- test_summary: Prodrug activation in C57BL/6 mouse brain assessed as FAAH-mediated sobetirome formation at 3.05 umol/kg, ip after 1 hr by LC-MS/MS analysis
- Format: organism-based
- applied_conditions: in vivo
metric_name: Drug uptake (ng/g)

Cc1cc(OCC(=O)NCC#N)cc(C)c1Cc1ccc(O)c(C(C)C)c1 ... 59.9
CCCNC(=O)COc1cc(C)c(Cc2ccc(O)c(C(C)C)c2)c(C)c1 ... 20.2
CCNC(=O)COc1cc(C)c(Cc2ccc(O)c(C(C)C)c2)c(C)c1 ... 58.2
C#CCNC(=O)COc1cc(C)c(Cc2ccc(O)c(C(C)C)c2)c(C)c1 ... 59.5
Cc1cc(OCC(=O)NCC(F)(F)F)cc(C)c1Cc1ccc(O)c(C(C)C)c1 ... 59.4

###

- target_desc: Fatty-acid amide hydrolase 1 (Homo sapiens, UniProt O00519)
- Sequence (O00519 whole entry): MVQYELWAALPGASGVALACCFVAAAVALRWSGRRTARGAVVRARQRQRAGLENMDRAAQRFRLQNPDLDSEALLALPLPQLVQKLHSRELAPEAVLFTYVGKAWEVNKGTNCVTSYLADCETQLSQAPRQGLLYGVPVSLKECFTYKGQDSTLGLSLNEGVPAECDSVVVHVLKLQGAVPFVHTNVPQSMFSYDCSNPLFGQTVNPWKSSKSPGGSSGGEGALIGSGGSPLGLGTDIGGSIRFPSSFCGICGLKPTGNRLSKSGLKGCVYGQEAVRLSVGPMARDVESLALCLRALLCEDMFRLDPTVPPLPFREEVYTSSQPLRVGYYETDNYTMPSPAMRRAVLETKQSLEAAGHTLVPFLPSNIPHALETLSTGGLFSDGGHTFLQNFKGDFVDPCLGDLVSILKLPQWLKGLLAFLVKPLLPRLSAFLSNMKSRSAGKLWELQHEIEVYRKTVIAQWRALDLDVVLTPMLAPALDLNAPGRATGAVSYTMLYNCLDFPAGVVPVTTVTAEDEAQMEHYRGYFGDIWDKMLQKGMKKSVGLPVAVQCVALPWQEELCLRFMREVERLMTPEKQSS
- test_summary: Prodrug activation in COS7 cells overexpressing human FAAH assessed as FAAH-mediated sobetirome formation by measuring compound hydrolysis rate at 100 uM by LC-MS/MS analysis
- Assay type: cell-based
Entries and their Drug metabolism
metric_name: Drug metabolism (nmol/mg/min)

Cc1cc(OCC(=O)NN)cc(C)c1Cc1ccc(O)c(C(C)C)c1 ... 3.8
CCCNC(=O)COc1cc(C)c(Cc2ccc(O)c(C(C)C)c2)c(C)c1 ... 2.6
Cc1cc(OCC(=O)NC2CC2)cc(C)c1Cc1ccc(O)c(C(C)C)c1 ... 3.2
Cc1cc(OCC(=O)NO)cc(C)c1Cc1ccc(O)c(C(C)C)c1 ... 4.9
C=CCNC(=O)COc1cc(C)c(Cc2ccc(O)c(C(C)C)c2)c(C)c1 ... 3.6
Cc1cc(OCC(=O)Nc2ccccc2O)cc(C)c1Cc1ccc(O)c(C(C)C)c1 ... 1.4
Cc1cc(OCC(=O)N(C)C)cc(C)c1Cc1ccc(O)c(C(C)C)c1 ... 4.3
Cc1cc(OCC(=O)NC(C)CO)cc(C)c1Cc1ccc(O)c(C(C)C)c1 (stereo not given) ... 4.5
Cc1cc(OCC(=O)Nc2cccc(O)c2)cc(C)c1Cc1ccc(O)c(C(C)C)c1 ... 10.1
Cc1cc(OCC(=O)NCCO)cc(C)c1Cc1ccc(O)c(C(C)C)c1 ... 4.8
Cc1cc(OCC(=O)NCC(C)O)cc(C)c1Cc1ccc(O)c(C(C)C)c1 (stereo not given) ... 3.6
Cc1cc(OCC(=O)NCCc2ccc(O)c(O)c2)cc(C)c1Cc1ccc(O)c(C(C)C)c1 ... 0.8
Cc1cc(OCC(=O)NCC(F)F)cc(C)c1Cc1ccc(O)c(C(C)C)c1 ... 3.4
Cc1cc(OCC(=O)Nc2cccc(F)c2)cc(C)c1Cc1ccc(O)c(C(C)C)c1 ... 2.1
Cc1cc(OCC(=O)NCC#N)cc(C)c1Cc1ccc(O)c(C(C)C)c1 ... 5
